Recorded growth for the following compounds
# System: A498 renal
# METHOD: NCI-60 one-dose screen, 48 h (100 = growth as untreated, 0 = no growth, -100 = all killed)
# ASSAY CONDITIONS: 10 µM unless noted
# Procedure: Growth inhibition of the A498 human tumor cell line is measured as a screen for anti-cancer activity. Cells are grown in 96 well plates and exposed to the test compound for 48 hours. Compounds are tested at a single concentration, which is 10^-5 M for most compounds. The reported endpoint is percent growth (GI% or GIPRCNT), where numbers from 0 - 100% represent growth inhibition, and numbers from -100% - 0 represent cell death. For example, a value of 40 represents 60% growth inhibition. […]
About 83,000 compounds went through this panel and 20% of them were active in at least one assay; those are over-represented in the sample as a whole.
Write the answer as a number in %, unit excluded.

The following compounds have reported results that may help.
- COMPOUND: "COc1cc(CNC(=O)/C=C/c2ccc3c(c2)OCO3)ccc1OCc1cn(-c2ccc([N+](=O)[O-])cc2)nn1"
  TEST TARGET: "A498 renal"
  growth / %: 113
- COMPOUND: "COc1ccc(NC(=O)c2sc3nc(C(C)C)ccc3c2N)cc1"
  TEST TARGET: "A498 renal"
  growth / %: 84.4
- COMPOUND: "CC(/C=C1\\SC(=S)N(CCCC(=O)NC(CC(C)C)C(=O)O)C1=O)=C\\c1ccccc1 (centres undefined)"
  TEST TARGET: "A498 renal"
  growth / %: 145
- COMPOUND: "COc1ccc2c(c1)c(/C=N/Nc1ccc3ccccc3n1)cn2C"
  TEST TARGET: "A498 renal"
  growth / %: 83.3
- COMPOUND: "CCOC(=O)C(N=Nc1ccc(S(=O)(=O)N=C(N)N)cc1)C(C)=O (centres undefined)"
  TEST TARGET: "A498 renal"
  growth / %: 102

Q: Please look up its growth: `S=c1c2ccccc2nc2n1CCc1c-2[nH]c2ccccc12`
Ans: 112

Q: Next compound up: `COc1cccc(-c2nc(Nc3ccc(S(N)(=O)=O)cc3)c3ccccc3n2)c1`
Ans: 23.9

Q: Also `O=c1[nH]c2ccccc2cc1CSc1nccc(-c2ccc3ccccc3c2)n1` , if possible.
Ans: 114

Q: Same for CC1(C)CC[C@]2(C(=O)O)CC[C@]3(C)C(=CCC4[C@@]5(C)C[C@@H](O)[C@@H]6OC(c7ccccc7Br)OC[C@@]6(C)C5CC[C@]43C)C2C1 (some centres undefined)
Ans: 23.7

====

# System: RXF 393 renal
# METHOD: NCI-60 one-dose screen, 48 h
# ASSAY CONDITIONS: 10 µM unless noted
The panel holds about 83,000 compounds, 20% with a hit somewhere; the sample as a whole holds those more often. The source made the active and inactive calls. The calls were made as follows: active = growth percent below 10; inactive = the rest.
Valid outcomes are listed here; reply with one: yes for active, no for inactive

- COMPOUND: "N#Cc1c(-c2ccc(Br)cc2)nc2n[nH]c(-c3ccc(Br)cc3)c2c1-c1ccc(F)cc1"
  CATEGORY: "no"
- COMPOUND: "CC1(C)CC[C@]2(C(=O)Nc3ccc(F)cc3)CC[C@]3(C)C(=CCC4[C@@]5(C)C[C@@H](O)[C@H](O)[C@@](C)(CO)C5CC[C@]43C)C2C1 (stereo not given in full)"
  CATEGORY: "yes"
- COMPOUND: "COc1ccc(C(=O)/C=C/c2ccc(OCc3ccccc3)c(OC)c2)cc1OC"
  CATEGORY: "no"
- COMPOUND: "C/C(=N\\N=C1/C(=O)Nc2ccc(Cl)cc21)c1ccc2c(c1)Nc1ccccc1S2"
  CATEGORY: "yes"

API: the following record is the query input.
Q: What did this assay record as the result for `O=C(/C=C/c1ccc(-c2ccccc2)cc1)c1nc2ccccc2n1Cc1ccc(F)cc1` ?
Ans: no

====

# System: NCI-H226 lung
# METHOD: NCI-60 one-dose screen, 48 h
# ASSAY CONDITIONS: 10 µM unless noted
This is part of a sample that, as a whole, favours compounds with a hit. Of some 83,000 tested, about 20% had one in any assay. Calls of active or inactive are those of the source. How the source made its calls: active means growth percent below 10; inactive means the rest.
In this exercise, the only acceptable responses are t (active), f (inactive)

Consider the following illustrative entries.
- COMPOUND: "CCOC(=O)C1=C(N)N(c2ccccc2)C2=C(C(=O)CC(C)(C)C2)C1c1ccccc1Cl (configuration not stated)"
  CATEGORY: "f"
- COMPOUND: "CC1=C(C(=O)OCc2ccccc2)C(c2ccc(-n3cncn3)cc2)n2c(nc3ccccc32)N1 (configuration not stated)"
  CATEGORY: "f"
- COMPOUND: "COC1=C[C@]23CCC(=O)N2CCc2cc4c(cc2[C@@H]3[C@@H]1OC(=O)[C@H](C)O)OCO4"
  CATEGORY: "f"

Q: Which outcome did this test record for the compound `CC(=O)Nc1cccc(Nc2nc(N[C@H]3CCCc4ccccc43)c3ccccc3n2)c1` ?
Ans: f

Q: Now the compound `Cc1ccc(C(SCCNCc2cc(N(C)C)ccn2)(c2ccccc2)c2ccccc2)cc1`
Ans: t

Q: Note, next up: `CCOC(=O)c1ccc(Nc2nc(NN)nc(-c3ccc(OC)cc3)c2C#N)cc1`
Ans: f

Q: Also `Cc1ccc(S(=O)(=O)c2nc(S(=O)(=O)c3ccc(C)cc3)c(Cl)s2)cc1` , if possible.
Ans: t

Q: Further, for `Cc1cc2nc3c4ccccc4n(CCCN(C)C)c3nc2cc1C` ?
Ans: t

Q: Input `NS(=O)(=O)c1ccc(N=Nc2c(O)n(CC(=O)Nc3ccccc3)c3ccccc23)cc1`
Ans: f

Q: # repeat for COc1ccc(C2=NN(C(C)=O)C(c3ccc(OCc4ccc(Cl)cc4)c(OC)c3)C2)cc1OC (configuration not stated)
Ans: f

Q: Try `COc1ccc(-c2ccnc(SCc3cc4ccccc4[nH]c3=O)n2)cc1` next.
Ans: f

Q: Then this compound: `O=C(N/N=C/c1ccc(-c2ccc(O)cc2)o1)c1[nH]c2ccc(Br)cc2c1-c1ccccc1`
Ans: f

Q: Queued: `N#Cc1cnn(C(=O)c2ccccc2Br)c1NC(=O)c1ccc(Br)cc1Cl`
Ans: f

Q: Now consider `COc1ccc2c(c1)C(=N/N=C(\C)c1ccc(OC)c(S(N)(=O)=O)c1)C(=O)N2` .
Ans: f

Q: Continue with `Cn1cc(-c2cc(N)n3nc(-c4cn(C)c5ncccc45)cc3n2)c2cccnc21`
Ans: f

Q: Now the same for `CCCSc1nc(NCCc2c[nH]c3ccccc23)c(C#N)c(-c2ccccc2)n1`
Ans: f

Q: One more compound: `NS(=O)(=O)c1ccc(N=Nc2c(O)n(CC(=O)Nc3ccccc3Cl)c3ccccc23)cc1`
Ans: t

Q: Note, next up: `Cn1cc(-c2cc3nc(-c4c[nH]c5ccc(Cl)cc45)cc(N)n3n2)c2ccccc21`
Ans: t

Q: Entry to check: C=C1CC[C@@H]2[C@]3(C)COC(c4cn[nH]c4-c4ccc(F)cc4)O[C@@H]3CC[C@@]2(C)[C@@H]1C/C=C1/C(=O)OCC1O (some centres not stated)
Ans: t

Q: Here is the next compound: `COc1ccc(NC(=O)Cn2c(/C=C/c3cccc([N+](=O)[O-])c3)nc3ccccc3c2=O)cc1`
Ans: f

Q: Same for `COc1ccc(-c2nc(SCC(C)C)nc(NCCc3c[nH]c4ccccc34)c2C#N)cc1`
Ans: f

Q: Input Cc1ccc([C@H]2C(C(=O)c3ccc(Cl)cc3)C3(N[C@@H]2c2ccccc2)C(=O)Nc2ccccc23)cc1 (some centres not stated)
Ans: f

Q: // repeat for `COc1ccc(C(=O)/C=C/c2ccc(OC)c(OCc3ccccc3)c2)cc1OC` and report
Ans: f

====

# Tested on: K-562 leukemia
# METHOD: NCI-60 one-dose screen, 48 h (100 = growth as untreated, 0 = no growth, -100 = all killed)
# ASSAY CONDITIONS: 10 µM unless noted
This is part of a sample that, as a whole, favours compounds with a hit. Of some 83,000 tested, about 20% had one in any assay.
MEASURED PARAMETER: growth (%)
Please state the figure in %; there is no need to write the unit.

- MOLECULE: "CC(=O)Nc1cccc(Nc2nccc(N[C@@H](C)c3ccccc3)n2)c1"
  growth [%]: 7.64
- MOLECULE: "O=C1Nc2cc(Cl)ccc2/C1=C/c1cccc(OCc2ccccn2)c1"
  growth [%]: 4.79
- MOLECULE: "C#C[C@]1(O)CC[C@H]2[C@@H]3CC=C4c5sc(-c6ccc([N+](=O)[O-])cc6)nc5CC[C@]4(C)[C@H]3CC[C@@]21C"
  growth [%]: 5.27
- MOLECULE: "COc1ccc(-c2nc3cc(C)ccc3n2CC(=O)N=Nc2c(O)[nH]c3ccc(Br)cc23)cc1"
  growth [%]: 9.75
- MOLECULE: "C=C1CC[C@@H]2[C@]3(C)COC(c4cn[nH]c4-c4ccc(Br)cc4)O[C@@H]3CC[C@@]2(C)[C@@H]1C/C=C1/C(=O)OCC1O (some centres not stated)"
  growth [%]: 7.76

Q: Please look up its growth: `CC(=O)c1cc(C(=O)c2ccccc2)n2c1ccc1ccccc12`
Ans: 94.4

Q: Now the molecule CC1=C(C(=O)c2ccccc2)C(c2cccc3ccccc23)n2c(nc3ccccc32)N1 (configuration not stated)
Ans: 39.3

Q: And for COCOc1ccc2c(=O)c(C)c(C(=O)N[C@@H](Cc3ccccc3)C(O)C(=O)NCCc3ccc(OC)cc3)oc2c1 (some centres not stated) ?
Ans: 84.1

Q: Now this one: `O=c1oc2ccc(Br)cc2cc1C1=CSc2nc3sc4c(c3c(=O)n2N=C1)CCCC4`
Ans: 97.1

Q: Repeat with `Cc1ncsc1-c1ccc(CNC(=O)[C@@H]2C[C@@H](O)CN2C(=O)[C@@H](NC(=O)C2(F)CC2)C(C)(C)C)c(OCCOCCOCCOCCOc2nc(Nc3cc(S(C)(=O)=O)ccc3N[C@@H](c3cccc4c3OC(F)(F)O4)c3ncccc3Cl)nc(N3CCNCC3)n2)c1`
Ans: 23.1

Q: Follow-up entry: `CCN(CC)c1ccnc(CNCCSC(c2ccccc2)(c2ccccc2)c2ccc(OC)cc2)c1`
Ans: -23.6

Q: Can you handle `COc1ccc(-c2ccnc(SCc3cc4ccccc4[nH]c3=O)n2)cc1` next?
Ans: 11.1
